# credit: the NIST ThermoML archive (doi:10.1021/je060113j)

Details: 298.15 K; 101.33 kPa; Liquid; Sing-around technique in a fixed-path interferometer
± gives the expanded uncertainty stated by the source.
Quick reference for speed of sound among some molecules

Examples with answers:
Kindly note the recorded speed of sound for OCCO , which is 1666 ± 1.3 m/s

Kindly note the recorded speed of sound for CN(C)C=O [dimethylformamide] , which is 1465 ± 1.2 m/s

Kindly note the recorded speed of sound for O , which is 1498 ± 1.2 m/s

Kindly note the recorded speed of sound for C1COCCO1 , which is 1344 ± 1.2 m/s

Continuing:
Kindly note the recorded speed of sound for C[S+](C)[O-] [dimethyl sulfoxide] , which is 1493 ± 1.2 m/s

Kindly note the recorded speed of sound for C1CCOC1 [tetrahydrofuran] , which is 1279 ± 1.2 m/s
